As shown below, each of these molecules has a reported IC50 value.
Molecular target: HLA B*1501 (Homo sapiens, UniProt P01889, A329T/A93T/A95T/C349S/D201E/D98Y/E187L/E204Q/E69M/E70A/K202T/N87E/Q94N/R155S/R180W/S121R/S35A/S48A/V306I/V36M/Y140S/Y91S)
Test: biochemical
Where a SMILES comes first, the peptide text is derived from it.
measured-property: IC50

* CC[C@H](C)[C@H](N)C(=O)N[C@@H](CC(C)C)C(=O)N[C@@H](CCCCN)C(=O)N[C@@H](CCCCN)C(=O)N[C@@H](CC(C)C)C(=O)N[C@@H](CO)C(=O)N1CCC[C@H]1C(=O)N[C@@H](Cc1ccc(O)cc1)C(=O)N[C@@H](Cc1ccccc1)C(=O)O [3102.0903] (H-ILKKLSPYF-OH) | 1.2 nM
* CC(C)C[C@H](NC(=O)[C@H](CCCCN)NC(=O)[C@H](CCCCN)NC(=O)[C@H](CC(C)C)NC(=O)[C@@H](N)CC(C)C)C(=O)N[C@@H](CC(N)=O)C(=O)N[C@@H](CO)C(=O)N[C@@H](Cc1ccccc1)C(=O)NCC(=O)O [3102.1020] (H-LLKKLNSFG-OH) | 45 nM
* CC[C@H](C)[C@H](NC(=O)[C@H](Cc1c[nH]cn1)NC(=O)[C@H](CCCCN)NC(=O)[C@H](CC(N)=O)NC(=O)[C@H](CCSC)NC(=O)[C@@H](N)Cc1ccccc1)C(=O)N[C@@H](CC(C)C)C(=O)N[C@@H](CO)C(=O)N[C@@H](Cc1ccc(O)cc1)C(=O)O [3102.1258] (H-FMNKHILSY-OH) | 1.7 nM
* CC[C@H](C)[C@H](NC(=O)[C@H](C)NC(=O)[C@@H](N)CC(C)C)C(=O)N1CCC[C@H]1C(=O)N[C@@H](C)C(=O)N[C@H](C(=O)N[C@@H](CCC(=O)O)C(=O)N[C@@H](Cc1ccccc1)C(=O)N[C@@H](Cc1ccccc1)C(=O)O)[C@@H](C)O [3102.1001] (H-LAIPATEFF-OH) | 4.2 nM
* CC[C@H](C)[C@H](N)C(=O)N[C@@H](CO)C(=O)N[C@H](C(=O)N[C@@H](CC(C)C)C(=O)N[C@H](C(=O)NCC(=O)N[C@@H](CO)C(=O)N[C@@H](CO)C(=O)N[C@H](C(=O)O)[C@@H](C)CC)[C@@H](C)O)C(C)C [3102.1072] (H-ISVLTGSSI-OH) | 34 nM
* CC(C)C[C@H](NC(=O)[C@H](Cc1ccccc1)NC(=O)[C@@H](NC(=O)[C@H](CCCCN)NC(=O)[C@H](CO)NC(=O)[C@@H](N)CO)C(C)C)C(=O)N[C@@H](CCCCN)C(=O)N[C@@H](C)C(=O)N[C@@H](Cc1ccccc1)C(=O)O [3102.0662] (H-SSKVFLKAF-OH) | 1.7 nM
* C[C@@H](O)[C@H](NC(=O)[C@H](Cc1ccccc1)NC(=O)[C@H](CO)NC(=O)[C@@H](N)CCCNC(=N)N)C(=O)N[C@@H](Cc1ccccc1)C(=O)N[C@@H](CCCCN)C(=O)N[C@@H](CCC(=O)O)C(=O)NCC(=O)N[C@@H](Cc1ccccc1)C(=O)O [3102.0988] (H-RSFTFKEGF-OH) | 35 nM
